# Target entity: G12V-mutant human KRAS (amino acid residues 1-188) (Homo sapiens, UniProt P01116, G12V)
# Construct: G12V-mutant human KRAS (amino acid residues 1-188) with FLAG tag was purified from E. coli; made in house; host or cells: E. coli
# Assay method text: KRAS Binding Competition Assay (AlphaScreen; biotinylated KRpep-2d analogue), G12V
# Test settings: geometric mean, read-out: KRAS GMean IC50 (uM) MUTATION: G12V
This listing pairs compounds with measured IC50.

Illustrative cases are given below, each with its answer.
The reported IC50 value, G12V-mutant human KRAS (amino acid residues 1-188) (Homo sapiens, UniProt P01116, G12V), for CN1CCC[C@H]1COc1nc(N2C[C@H]3CC[C@@H](C2)N3CC(=O)N2CCC(N)CC2)c2ccc(-c3cc(O)cc4ccccc34)c(F)c2n1 [P-0427] reads 100 to 1000 µM

The reported IC50 value, G12V-mutant human KRAS (amino acid residues 1-188) (Homo sapiens, UniProt P01116, G12V), for CN1CCC[C@H]1COc1nc(N2C[C@H]3CC[C@@H](C2)N3C(=O)C(=O)Nc2ccccn2)c2ccc(-c3cc(O)cc4ccccc34)c(F)c2n1 [P-0400] reads 0.0001 to 10 µM

---
The reported IC50 value, G12V-mutant human KRAS (amino acid residues 1-188) (Homo sapiens, UniProt P01116, G12V), for CN1CCC(CC(=O)N2[C@@H]3CC[C@H]2CN(c2nc(OCC45CCCN4CCC5)nc4c(F)c(-c5cc(O)cc6ccccc56)ccc24)C3)CC1 [P-0149] reads 0.0001 to 10 µM

The reported IC50 value, G12V-mutant human KRAS (amino acid residues 1-188) (Homo sapiens, UniProt P01116, G12V), for O=C1CC(CC(=O)N2[C@@H]3CC[C@H]2CN(c2nc(OCC45CCCN4CCC5)nc4c(F)c(-c5cc(O)cc6ccccc56)ccc24)C3)C(=O)N1 (stereo partly shown) [P-0356] reads 0.0001 to 10 µM

The reported IC50 value, G12V-mutant human KRAS (amino acid residues 1-188) (Homo sapiens, UniProt P01116, G12V), for N#CCC(=O)N1[C@@H]2CC[C@H]1CN(c1nc(OCC34CCCN3CCC4)nc3c(F)c(-c4cc(O)cc5ccccc45)ccc13)C2 [P-0354] reads 0.0001 to 10 µM

The reported IC50 value, G12V-mutant human KRAS (amino acid residues 1-188) (Homo sapiens, UniProt P01116, G12V), for CN1CCC[C@H]1COc1nc(N2[C@@H]3CC[C@H]2CN(C(=O)C(O)CO)C3)c2ccc(-c3cc(O)cc4ccccc34)cc2n1 (stereo partly shown) [P-0219] reads 10 to 100 µM

The reported IC50 value, G12V-mutant human KRAS (amino acid residues 1-188) (Homo sapiens, UniProt P01116, G12V), for CN1CCC[C@H]1COc1nc(N2C[C@H]3CC[C@@H](C2)N3)c2ccc(-c3ccccc3O)cc2n1 [P-0169] reads 100 to 1000 µM

The reported IC50 value, G12V-mutant human KRAS (amino acid residues 1-188) (Homo sapiens, UniProt P01116, G12V), for Oc1cc(-c2ccc3c(N4C[C@H]5CC[C@@H](C4)N5)nc(OCC45CCCN4CCC5)nc3c2Cl)c2ccccc2c1 [P-0003] reads 0.0001 to 10 µM

The reported IC50 value, G12V-mutant human KRAS (amino acid residues 1-188) (Homo sapiens, UniProt P01116, G12V), for CNCC(=O)N1[C@@H]2CC[C@H]1CN(c1nc(OC[C@@H]3CCCN3C)nc3c(F)c(-c4cc(O)cc5ccccc45)ccc13)C2 [P-0426] reads 10 to 100 µM

The reported IC50 value, G12V-mutant human KRAS (amino acid residues 1-188) (Homo sapiens, UniProt P01116, G12V), for CN1CCC[C@H]1COc1nc(N2C[C@H]3CC[C@@H](C2)N3)c2ccc(-c3ccc4c(c3)NC(=O)C4)cc2n1 [P-0174] reads 10 to 100 µM

The reported IC50 value, G12V-mutant human KRAS (amino acid residues 1-188) (Homo sapiens, UniProt P01116, G12V), for CN(C)c1ccc(Oc2nc(N3C[C@H]4CC[C@@H](C3)N4)c3cc(Cl)c(-c4c(O)cccc4F)c(F)c3n2)cc1 [P-0361] reads 0.0001 to 10 µM

The reported IC50 value, G12V-mutant human KRAS (amino acid residues 1-188) (Homo sapiens, UniProt P01116, G12V), for CN1CCC[C@H]1COc1nc(N2[C@@H]3CC[C@H]2CN(C(=O)CC2CCCC2O)C3)c2ccc(-c3cc(O)cc4ccccc34)cc2n1 (stereo partly shown) [P-0196] reads 10 to 100 µM

The reported IC50 value, G12V-mutant human KRAS (amino acid residues 1-188) (Homo sapiens, UniProt P01116, G12V), for CCOC(=O)CNC(=O)N1[C@@H]2CC[C@H]1CN(c1nc(OCC34CCCN3CCC4)nc3cc(-c4cc(O)cc5ccccc45)ccc13)C2 [P-0090] reads 0.0001 to 10 µM
